Origin of the recorded values: paper PMC10786891

Biological target: T1, EsCas13d, nuclease-dead (Eubacterium siraeum, UniProt B0MS50, R295A;H300A;R849A;H854A)
T1 sequence: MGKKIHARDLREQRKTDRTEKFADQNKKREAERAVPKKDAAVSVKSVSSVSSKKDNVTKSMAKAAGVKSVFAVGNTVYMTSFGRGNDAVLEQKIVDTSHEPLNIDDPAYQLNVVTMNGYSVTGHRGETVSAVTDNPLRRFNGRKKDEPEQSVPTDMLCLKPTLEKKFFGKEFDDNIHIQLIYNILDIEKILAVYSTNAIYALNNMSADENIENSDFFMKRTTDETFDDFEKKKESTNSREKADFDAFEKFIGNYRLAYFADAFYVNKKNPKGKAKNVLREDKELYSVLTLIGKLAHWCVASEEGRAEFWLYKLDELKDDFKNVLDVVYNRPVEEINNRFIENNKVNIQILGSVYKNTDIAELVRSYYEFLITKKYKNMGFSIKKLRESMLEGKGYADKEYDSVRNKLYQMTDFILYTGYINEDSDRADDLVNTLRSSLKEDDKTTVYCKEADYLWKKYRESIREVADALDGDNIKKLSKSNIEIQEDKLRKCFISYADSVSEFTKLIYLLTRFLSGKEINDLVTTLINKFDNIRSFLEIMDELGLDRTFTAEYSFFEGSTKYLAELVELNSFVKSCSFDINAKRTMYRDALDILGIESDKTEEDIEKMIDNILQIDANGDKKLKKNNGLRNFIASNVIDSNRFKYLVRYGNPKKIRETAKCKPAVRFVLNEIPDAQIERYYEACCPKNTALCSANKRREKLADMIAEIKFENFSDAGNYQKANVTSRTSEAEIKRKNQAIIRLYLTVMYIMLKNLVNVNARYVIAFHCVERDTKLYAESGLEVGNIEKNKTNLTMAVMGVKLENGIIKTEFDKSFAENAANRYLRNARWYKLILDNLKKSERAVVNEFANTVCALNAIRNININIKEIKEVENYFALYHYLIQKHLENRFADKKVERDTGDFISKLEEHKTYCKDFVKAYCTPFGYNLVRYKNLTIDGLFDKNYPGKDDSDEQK
Experiment: crRNA (strand 1, pre-loaded); Mg2+; 40 mM Tris-HCl pH 7.5, 150 mM NaCl, 6 mM MgCl2, 1 mM DTT, 0.1% Tween-20, 0.2 mg/ml BSA; 25 C; 10 min per concentration, then washed
Conditions: tags: His6-TwinStrep-SUMO cleaved; N-terminal SNAP kept (SNAP-Surface 488); label: 3' end held by stalled T7 RNA polymerase

binder | Kd (nM)
target 1 C2G,U10C (mixed) RNA 1: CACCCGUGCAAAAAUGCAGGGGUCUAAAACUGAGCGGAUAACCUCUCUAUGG RNA 2: GGGAAUGGAUCCACAUCUACGAAUUCGUACCAUAGAGAGGUCAUCCGCUGACCGAGAUCGGAAGAGCACACGU | 5.45
target 1 insG 3' of 20,insU 3' of 20 (mixed) RNA 1: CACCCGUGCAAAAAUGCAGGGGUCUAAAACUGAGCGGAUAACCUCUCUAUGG RNA 2: GGGAAUGGAUCCACAUCUACGAAUUCGUACCAGUUAGAGAGGUUAUCCGCUCACCGAGAUCGGAAGAGCACACGU | 28.4
target 1 MT 5'PFS GCA 3'PFS AAG (mixed) RNA 1: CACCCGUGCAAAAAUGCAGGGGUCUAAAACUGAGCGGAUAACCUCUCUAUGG RNA 2: GGGAAUGGAUCCACAUCUACGAAUUCGCACCAUAGAGAGGUUAUCCGCUCAAAGAGAUCGGAAGAGCACACGU | 32.5
